# Protocol details: Antioxidant activity against UV/H2O2-induced thymidine degradation by thymidine protection assay
# Assay type: functional
# note: boundary value 100 µM maps to not fulfilled; EC50 below it maps to fulfilled

>  <Smiles data>
COC(=O)/C(=C1/OC(=O)C(C)=C1O)c1ccc(OC)cc1

>  <Class label>
not fulfilled

$$$$
>  <Smiles data>
COc1ccc(C2=C(O)/C(=C(/C)C(C)(C)O)OC2=O)cc1

>  <Class label>
not fulfilled

$$$$
>  <Smiles data>
COC(=O)/C(C)=C1/OC(=O)C(c2ccc(OC)cc2)=C1O

>  <Class label>
not fulfilled

$$$$
>  <Smiles data>
CCCCNC(=O)/C(C)=C1/OC(=O)C(c2ccc(OC)cc2)=C1O

>  <Class label>
fulfilled

$$$$
>  <Smiles data>
COC(=O)/C(=C1/OC(=O)C(C)=C1O)c1ccccc1

>  <Class label>
not fulfilled

$$$$
>  <Smiles data>
COC(=O)/C(=C1/OC(O)=C(c2ccc(OC)cc2)C1=O)c1ccc(OC)cc1

>  <Class label>
fulfilled

$$$$

* * *

# Protocol details: Antioxidant activity against UV/H2O2-induced thymidine degradation at 100 uM by thymidine protection assay
# Format: functional
Activity calls are given as the source filed them. The rule behind the calls is not given here.

>  <Smiles data>
COc1ccc(C2=C(O)/C(=C(/C)C(=O)N(C)OC)OC2=O)cc1

>  <Activity>
30%

$$$$
>  <Smiles data>
COC(=O)/C(C)=C1/OC(=O)C(c2ccc(Br)cc2)=C1O

>  <Activity>
Active

$$$$
>  <Smiles data>
COc1ccc(C2=C(O)/C(=C(/C)C(=O)OC(C)C)OC2=O)cc1

>  <Activity>
27%

$$$$
>  <Smiles data>
COc1ccc(C2=C(O)/C(=C(/C)C(=O)N3CCOCC3)OC2=O)cc1

>  <Activity>
30%

$$$$
>  <Smiles data>
COC(=O)/C(=C1/OC(=O)C(c2ccccc2)=C1O)c1ccccc1

>  <Activity>
Active

$$$$
>  <Smiles data>
COc1ccc(C2=C(O)/C(=C(/C)C(=O)NCCCN)OC2=O)cc1

>  <Activity>
30%

$$$$
>  <Smiles data>
COC(=O)/C(C)=C1/OC(=O)C(/C=C/c2ccccc2)=C1O

>  <Activity>
Active

$$$$
>  <Smiles data>
CCCCNC(=O)/C(C)=C1/OC(=O)C(c2ccc(OC)cc2)=C1O

>  <Activity>
30%

$$$$
>  <Smiles data>
COC(=O)/C(C)=C1/OC(=O)C(c2ccc(F)cc2)=C1O

>  <Activity>
Active

$$$$
>  <Smiles data>
COC(=O)/C(C)=C1/OC(=O)C(c2ccc(C(C)C)cc2)=C1O

>  <Activity>
Active

$$$$

* * *

# Protocol details: Antioxidant activity against […]/EDTA/H2O2-induced pEGFPLuc plasmid DNA degradation assessed as remaining supercoiled DNA form at 125 uM by gel-electrophoresis
# Type: functional
Active and inactive are the calls of the source. No cut-off for these calls is given here.
Property measured: Activity

>  <Smiles data>
CCCCNC(=O)/C(C)=C1/OC(=O)C(c2ccc(OC)cc2)=C1O

>  <Result>
40%

$$$$
>  <Smiles data>
COC(=O)/C(C)=C1/OC(=O)C(c2ccccc2)=C1O

>  <Result>
Active

$$$$
>  <Smiles data>
COC(=O)/C(C)=C1/OC(=O)C(c2ccc(C(C)C)cc2)=C1O

>  <Result>
Active

$$$$
>  <Smiles data>
COC(=O)/C(=C1/OC(O)=C(c2ccc(OC)cc2)C1=O)c1ccc(OC)cc1

>  <Result>
Active

$$$$
>  <Smiles data>
COc1ccc(C2=C(O)/C(=C(/C)C(=O)N3CCOCC3)OC2=O)cc1

>  <Result>
Active

$$$$
>  <Smiles data>
COC(=O)/C(C)=C1/OC(=O)C(/C=C/c2ccccc2)=C1O

>  <Result>
Active

$$$$
>  <Smiles data>
COc1ccc(C2=C(O)/C(=C(/C)C(=O)OC(C)C)OC2=O)cc1

>  <Result>
Active

$$$$
>  <Smiles data>
COc1ccc(C2=C(O)/C(=C(/C)C(C)(C)O)OC2=O)cc1

>  <Result>
40%

$$$$
>  <Smiles data>
COC(=O)/C(C)=C1/OC(=O)C(c2ccc(OC)cc2)=C1O

>  <Result>
40%

$$$$
>  <Smiles data>
COC(=O)/C(C)=C1/OC(=O)C(c2ccc(F)cc2)=C1O

>  <Result>
Active

$$$$
>  <Smiles data>
COc1ccc(C2=C(O)/C(=C(/C)C(=O)NCCCN)OC2=O)cc1

>  <Result>
40%

$$$$
>  <Smiles data>
COc1ccc(C2=C(O)/C(=C(/C)C(=O)N(C)OC)OC2=O)cc1

>  <Result>
Active

$$$$
>  <Smiles data>
COC(=O)/C(C)=C1/OC(=O)C(c2ccc(Br)cc2)=C1O

>  <Result>
Active

$$$$
